Item-by-item account of area under dose-response curve
Test system: HABS (astrocyte control)
Test: area under dose-response curve of % growth inhibition (log2 RLU vs DMSO / staurosporine), 1e-11 to 1e-4 M (% x log10 M); higher = more growth inhibition
// print number alone

Some solved cases for reference:
> print(dat)
                                   compound  tested.target  number
1  CCOC(=O)c1ccc(C#Cc2ccc3c(c2)C(C)(C)CCS3)nc1           HABS       0
2  CC(C(O)c1ccc(O)cc1)N1CCC(Cc2ccccc2)CC1 (centres undefined)           HABS   0.152
3  CN1CCCN(C(=O)c2cccc(-c3ccc(/C=C4/C(=O)Nc5ccc(Cl)cc54)o3)c2)CC1           HABS     124

[in] Give area under dose-response curve (HABS) of the following compound: "O=C(CCCCCCC(=O)Nc1ccc([C@H]2O[C@@H](CSc3nc(-c4ccccc4)c(-c4ccccc4)o3)C[C@@H](c3ccc(CO)cc3)O2)cc1)NO"
[out] 4.17
